Attribution: ChEMBL document CHEMBL5380866

- Assay name: Volume of distribution in Sprague-Dawley rat at 2 mg/kg, iv measured at 3 to 480 mins by LC-MS/MS analysis
- Assay type: ADME, organism-based
- Protocol conditions: in vivo, time 3-480 min
Measured metric: Vd (L/kg)
Report only the number, with the unit L/kg understood.

Sample CC(C)(C)n1nc(-c2nc3cc(Cl)ccc3[nH]2)cc1-c1ccco1 — what was its Vd? 20.1

====

- Assay name: Clearance in Sprague-Dawley rat at 2 mg/kg, iv measured at 3 to 480 mins by LC-MS/MS analysis
- Assay type: ADME, organism-based
- Protocol conditions: in vivo, time 3-480 min
Measured metric: clearance (mL/min/kg)
Report only the number, with the unit mL/min/kg understood.

Sample CC(C)(C)n1nc(-c2nc3cc(Cl)ccc3[nH]2)cc1-c1ccco1 — what was its clearance? 130

====

- Assay name: Oral bioavailability in Sprague-Dawley rat at 20 mg/kg measured at 10 to 720 mins by LC-MS/MS analysis
- Type: ADME, organism-based
- Protocol conditions: in vivo, time 10-720 min
Measured metric: bioavailability (%)
Report only the number, with the unit % understood.

Sample CC(C)(C)n1nc(-c2nc3cc(Cl)ccc3[nH]2)cc1-c1ccco1 — what was its bioavailability? 15.9

====

- Assayed system: UniProt:Q15391
- Sequence (Q15391 whole entry): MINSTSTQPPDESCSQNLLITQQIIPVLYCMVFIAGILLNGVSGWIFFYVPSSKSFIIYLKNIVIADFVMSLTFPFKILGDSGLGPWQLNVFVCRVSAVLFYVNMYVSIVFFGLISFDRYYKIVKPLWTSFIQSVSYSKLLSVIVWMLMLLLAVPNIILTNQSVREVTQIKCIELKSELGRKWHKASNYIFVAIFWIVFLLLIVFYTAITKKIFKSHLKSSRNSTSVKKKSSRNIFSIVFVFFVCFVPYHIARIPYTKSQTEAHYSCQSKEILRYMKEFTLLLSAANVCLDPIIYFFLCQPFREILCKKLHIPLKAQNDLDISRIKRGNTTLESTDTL
- Assay name: Antagonist activity at human P2Y14R expressed in HEK293 cells assessed as inhibition of UDPG-induced cAMP production preincubated for 0.5 hrs followed by UDPG stimulation by cAMP-glo analysis
Measured metric: IC50 (µM)
Report only the number, with the unit µM understood.

Sample O=C(O)c1cc(-c2ccccc2C2CCNCC2)c2ccc(-c3ccc(C(F)(F)F)cc3)cc2c1 — what was its IC50? 5.21

====

- Assayed system: P2Y purinoceptor 6 (Homo sapiens, UniProt Q15077)
- Sequence (Q15077 whole entry): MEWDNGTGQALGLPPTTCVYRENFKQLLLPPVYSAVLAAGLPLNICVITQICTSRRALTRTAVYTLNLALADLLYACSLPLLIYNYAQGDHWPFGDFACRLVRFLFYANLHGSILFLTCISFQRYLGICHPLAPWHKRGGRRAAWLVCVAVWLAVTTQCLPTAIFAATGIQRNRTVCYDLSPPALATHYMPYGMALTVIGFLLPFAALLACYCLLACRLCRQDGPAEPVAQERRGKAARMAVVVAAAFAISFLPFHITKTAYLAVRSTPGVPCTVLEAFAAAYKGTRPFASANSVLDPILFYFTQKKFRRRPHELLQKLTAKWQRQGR
- Assay name: Antagonist activity at human P2Y6R expressed in HEK293 cells assessed as inhibition of UDP-induced IP3 production preincubated for 0.5 hrs followed by UDP stimulation and measured after 12 hrs by ELISA analysis
- Assay type: functional, cell-based
pIC50: −log10 of the molar value.
Rule: pIC50 under 7 gives Condition not met, otherwise Condition met.

Please tell me: is the compound S=C=Nc1cccc(NC(=S)NCCCCNC(=S)Nc2cccc(N=C=S)c2)c1 at or over 7 in terms of pIC50? Condition met

What do you get for O=C(O)CCC(=O)N1N=C(c2nc3cc(Cl)ccc3[nH]2)CC1c1ccco1 (stereo not given) ? Condition not met

What do you get for CC(C)(C)n1nc(-c2nc3ccccc3[nH]2)cc1-c1ccccc1 ? Condition met

What do you get for CC(C)(C)n1nc(-c2nc3ccccc3s2)cc1-c1ccccc1 ? Condition not met

What do you get for Cc1ccc2nc(-c3cc(-c4ccccc4)n(C(C)(C)C)n3)oc2c1 ? Condition met

What do you get for CC(C)(C)n1nc(-c2nc3cc(Br)ccc3[nH]2)cc1-c1ccco1 ? Condition met

====

- Assayed system: P2Y purinoceptor 12 (Homo sapiens, UniProt Q9H244)
- Sequence (Q9H244 whole entry): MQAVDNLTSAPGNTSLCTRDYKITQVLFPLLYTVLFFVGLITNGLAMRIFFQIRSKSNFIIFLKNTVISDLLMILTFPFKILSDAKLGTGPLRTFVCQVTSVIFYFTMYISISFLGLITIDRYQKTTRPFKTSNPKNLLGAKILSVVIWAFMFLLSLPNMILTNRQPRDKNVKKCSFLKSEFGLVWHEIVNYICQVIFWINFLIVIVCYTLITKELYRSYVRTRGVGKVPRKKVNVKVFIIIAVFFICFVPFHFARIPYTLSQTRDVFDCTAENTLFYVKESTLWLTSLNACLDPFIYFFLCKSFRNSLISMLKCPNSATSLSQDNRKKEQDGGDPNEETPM
- Assay name: Antagonist activity at human P2Y12R expressed in HEK293 cells assessed as inhibition of MeSADP-induced cAMP production preincubated for 0.5 hrs followed by MeSADP stimulation by cAMP-glo analysis
- Assay type: functional, cell-based
Measured metric: IC50 (nM)
Report only the number, with the unit nM understood.

Tell me reported IC50 for CCCSc1nc(N[C@@H]2C[C@H]2c2ccc(F)c(F)c2)c2nnn([C@@H]3C[C@H](OCCO)[C@@H](O)[C@H]3O)c2n1 , tested with P2Y purinoceptor 12 (Homo sapiens, UniProt Q9H244). 1400

====

- Assay name: MRT in Sprague-Dawley rat at 2 mg/kg, iv measured at 3 to 480 mins by LC-MS/MS analysis
- Assay type: ADME, organism-based
- Protocol conditions: in vivo, time 3-480 min
Measured metric: MRT (min)
Report only the number, with the unit min understood.

Sample CC(C)(C)n1nc(-c2nc3cc(Cl)ccc3[nH]2)cc1-c1ccco1 — what was its MRT? 34.5

====

- Assay name: AUC (0 to t) in Sprague-Dawley rat at 2 mg/kg, iv measured at 3 to 480 mins by LC-MS/MS analysis
- Assay type: ADME, organism-based
- Design: dose 2 mg/kg, time 3-480 min, route iv
- Protocol conditions: in vivo
Measured metric: AUC(0-t) (ng·h/mL)
Report only the number, with the unit ng·h/mL understood.

Sample CC(C)(C)n1nc(-c2nc3cc(Cl)ccc3[nH]2)cc1-c1ccco1 — what was its AUC(0-t)? 261

====

- Assayed system: P2Y purinoceptor 6 (Homo sapiens, UniProt Q15077)
- Assay name: Antagonist activity at human P2Y6R expressed in HEK293 cells assessed as inhibition of UDP-induced IP3 production preincubated for 0.5 hrs followed by UDP stimulation and measured after 12 hrs by ELISA analysis
- Type: functional, cell-based
Answer each item with its documented log10 IC50.
A difference of one corresponds to tenfold IC50; all values are log10 with IC50 in nM.

Sample CC(C)(C)n1nc(-c2nc3ccccc3o2)cc1-c1ccco1 — what was its log10 IC50? 1.49

What do you get for CC(C)(C)n1nc(-c2nc3c(Cl)cccc3[nH]2)cc1-c1ccco1 ? 1.97

What do you get for Cc1ccc2[nH]c(-c3cc(-c4ccccc4)n(C(C)(C)C)n3)nc2c1 ? 1.89

What do you get for CC(C)(C)n1nc(-c2nc3cc([N+](=O)[O-])ccc3[nH]2)cc1-c1ccco1 ? 1.10

What do you get for CC(C)(C)n1nc(-c2nc3ccccc3[nH]2)cc1-c1ccco1 ? 2.20

What do you get for CC(C)(C)n1nc(-c2nc3ccccc3o2)cc1-c1ccccc1 ? 2.24

What do you get for Cc1ccc2oc(-c3cc(-c4ccco4)n(C(C)(C)C)n3)nc2c1 ? 2.31

What do you get for CC(C)(C)n1nc(-c2nc3cc(F)ccc3[nH]2)cc1-c1ccco1 ? 1.81

What do you get for Cc1cccc2oc(-c3cc(-c4ccco4)n(C(C)(C)C)n3)nc12 ? 1.97

What do you get for Cc1ccc2oc(-c3cc(-c4ccc[nH]4)n(C(C)(C)C)n3)nc2c1 ? 2.41

What do you get for CC(C)(C)n1nc(-c2nc3cc(Cl)ccc3[nH]2)cc1-c1ccccc1 ? 2.33

What do you get for CC(C)(C)n1nc(-c2nc3cc(C(F)(F)F)ccc3[nH]2)cc1-c1ccco1 ? 1.18

What do you get for CC(C)(C)n1nc(-c2nc3cc(Cl)ccc3[nH]2)cc1-c1ccco1 ? 0.77

====

- Assay name: AUC (0 to t) in Sprague-Dawley rat at 20 mg/kg, po measured at 10 to 720 mins by LC-MS/MS analysis
- Format: ADME, organism-based
- Design: time upper 720 min, time lower 10 min, dose 20 mg/kg, route po
- Protocol conditions: in vivo
Measured metric: AUC(0-t) (ng·h/mL)
Report only the number, with the unit ng·h/mL understood.

Sample CC(C)(C)n1nc(-c2nc3cc(Cl)ccc3[nH]2)cc1-c1ccco1 — what was its AUC(0-t)? 415

====

- Assayed system: UniProt:Q15077
- Assay name: Antagonist activity at human P2Y6R expressed in HEK293 cells assessed as inhibition of UDP-induced IP3 production preincubated for 0.5 hrs followed by UDP stimulation and measured after 12 hrs by ELISA analysis
- Type: functional, cell-based
Answer each item with its documented pIC50.
Quick note: pIC50 means taking -log10 of the concentration in moles per liter.

Sample Cc1ccc2cc(C3CC(c4ccco4)=NN3C(=O)CCC(=O)O)c(Cl)nc2c1 (centres undefined) — what was its pIC50? 6.90

What do you get for CC(C)n1nc(-c2nc3ccccc3s2)cc1-c1ccccc1 ? 7.06

What do you get for CC(C)(C)n1nc(-c2nc3cc(OC(F)(F)F)ccc3[nH]2)cc1-c1ccco1 ? 6.89

What do you get for Cc1ccc2nc(-c3cc(-c4ccco4)n(C(C)(C)C)n3)oc2c1 ? 7.14
